TARGET_UNDER_TEST: UniProtKB P40763
Sequence (P40763 whole entry): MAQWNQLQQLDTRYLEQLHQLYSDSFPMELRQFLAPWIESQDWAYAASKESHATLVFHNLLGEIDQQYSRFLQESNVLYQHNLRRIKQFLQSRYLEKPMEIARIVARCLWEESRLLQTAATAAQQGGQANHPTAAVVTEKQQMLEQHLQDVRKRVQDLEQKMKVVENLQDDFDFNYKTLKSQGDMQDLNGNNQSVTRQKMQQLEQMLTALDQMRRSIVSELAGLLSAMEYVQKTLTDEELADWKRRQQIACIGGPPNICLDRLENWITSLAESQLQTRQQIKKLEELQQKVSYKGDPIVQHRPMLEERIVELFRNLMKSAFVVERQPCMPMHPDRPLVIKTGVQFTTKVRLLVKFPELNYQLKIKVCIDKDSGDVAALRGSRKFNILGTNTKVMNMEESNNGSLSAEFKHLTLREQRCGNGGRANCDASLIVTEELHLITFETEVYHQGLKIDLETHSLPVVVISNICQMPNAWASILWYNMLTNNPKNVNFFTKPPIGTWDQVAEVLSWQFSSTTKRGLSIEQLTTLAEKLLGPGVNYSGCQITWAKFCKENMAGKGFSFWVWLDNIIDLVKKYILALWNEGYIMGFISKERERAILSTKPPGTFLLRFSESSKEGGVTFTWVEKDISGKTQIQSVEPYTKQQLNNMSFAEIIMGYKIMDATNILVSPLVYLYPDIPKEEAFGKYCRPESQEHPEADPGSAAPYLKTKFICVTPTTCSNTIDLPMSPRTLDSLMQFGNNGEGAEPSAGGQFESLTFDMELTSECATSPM
ASSAY_DETAILS: Inhibition of STAT3 in human HEK293T cells assessed as inhibition of IL-6 stimulated STAT3 phosphorylation by dual-luciferase reporter assay
MEASURED_PROPERTY: IC50

Query string: Name the recorded IC50 for `Cc1cccc(CN2CCN(C(=O)c3cc4ccc(Oc5cnc(-c6nc(-c7ccc(C(F)(F)F)cc7)no6)cn5)cc4n3C)CC2)c1` .
Result string: > 1000 nM

Query string: Data request, read-out IC50, for `Cn1c(C(=O)N2CCN(Cc3ccc(F)cc3)CC2)cc2ccc(Oc3cnc(-c4nc(-c5ccc(C(F)(F)F)cc5)no4)cn3)cc21`
Result string: 427 nM

Query string: If you can, please state the reported IC50 value of `Cn1c(C(=O)N2CCN(Cc3ccc(C(F)(F)F)cc3)CC2)cc2ccc(Oc3cnc(-c4nc(-c5ccc(C(F)(F)F)cc5)no4)cn3)cc21` .
Result string: 72.4 nM

Query string: What does the record list as IC50 for `Cn1c(C(=O)N2CCN(Cc3ccc(OCC(F)(F)F)cc3)CC2)cc2ccc(Oc3cnc(-c4nc(-c5ccccc5)no4)cn3)cc21` ?
Result string: 217 nM
